Data origin, for the record: paper PMC5540273

- Test system: PRKX
- measurement parameters: concentration: 1 μM, replicates: in singlicate; n = 1;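 further: KINOMEscan kinase panel screen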
parameter: %Inh (%)
Your answer should be a plain number; it is taken to be in %.

> print(dat)
                                   compound  target.system  parameter  numeric.result
1  COc1cccc(C2=C(Nc3cc(Cl)c(O)c(Cl)c3)C(=O)NC2=O)c1           PRKX       %Inh              12
2  COc1ccc(CSc2nnc(-c3ccc4ncsc4c3)o2)cc1C(F)(F)F           PRKX       %Inh               0
3  COc1ccc(Nc2nccc(N3CCC(NC(=O)C(C)c4ccc(Cl)cc4)CC3)n2)cc1 (centres unmarked)           PRKX       %Inh               8
4  COc1ccc(Nc2nccc(NCCNC(=O)Nc3cc(C)ccc3C)n2)cc1           PRKX       %Inh               5

Here is the next item to consider.
Lookup: Form: Entry = CN1c2ccc(-c3ccc(C(N)=O)cc3)cc2-c2[nH]ncc2S1(=O)=O | System = PRKX | %Inh = ____
Found: 0

----------
- Tested on: SRC
- measurement parameters: concentration: 1 μM, replicates: in singlicate; n = 1
parameter: %Inh
Write down the value, and be sure its unit follows.

Consider the following illustrative entries.
> print(dat)
                                   molecule  parameter  result
1  CC(=O)c1c(C)c2cnc(Nc3ccc(N4CCNCC4)cn3)nc2n(C2CCCC2)c1=O       %Inh      0%
2  Cc1c(Cn2c3ccccc3n3c(=O)cc(N4CCOCC4)nc23)cccc1C(F)(F)F [GSK2306394]       %Inh      1%

Here is the next item to consider.
Lookup: Could you share which %Inh value was measured for CCCCc1nn2ncccc2c1-c1ccnc(NC2CC2)n1 [GW684374] ?
Found: 0%

----------
Reported %Inh is given for each of the following compounds.
- System: ERN1
- measurement parameters: concentration: 1 μM, replicates: in singlicate; n = 1
Your answer should be a plain number; it is taken to be in %.

Consider the following illustrative entries.
> print(dat)
                                   compound  unit.spec  numeric.result
1  O=C1NC(=O)C(c2ccc(Cl)cc2)=C1Nc1ccc(O)cc1          %               0
2  Cc1c(Cn2c3ccccc3n3c(=O)cc(N4CCOCC4)nc23)cccc1C(F)(F)F          %              10
3  Cc1nccc(-c2c(-c3ccc(F)cc3)ncn2CCCN2CCOCC2)n1.Cl          %               0
4  CNC(=O)c1ccc(C)c(-n2c(C)cc(OCc3ccc(F)cc3F)c(Br)c2=O)c1          %               0
5       CNc1cc(-c2ccc3c(N)n[nH]c3c2)nc(N)n1          %               0
6  NS(=O)(=O)c1cccc(N/C=C2\C(=O)Nc3ccc(S(=O)(=O)Cc4c(Cl)cccc4Cl)cc32)c1          %               7
7  Cl.Cl.Cl.N#Cc1ccc(CCNc2nccc(-c3cccc(CN4CCNCC4)c3)n2)cc1          %              25
8  COC(=O)C(Cc1ccccc1)NC(=O)NC1CCN(c2ccnc(Nc3ccc(F)cc3)n2)C1 (stereo not drawn)          %               0

Lookup: Could you share which %Inh value was measured for CCn1c(-c2c(N)noc2C)nc2cnccc21 ?
Found: 15
